target-desc: c-Jun N-terminal kinase, JNK (Homo sapiens) (UniProt P45983+P53779+P45984)
assay-procedure: Inhibition of JNK phosphorylation in human HeLa cells at 20 uM after 3 hrs by Western blotting analysis
Format: cell-based
Calls of active or inactive are those of the source. The rule behind the calls is not given here.
measure-name: inhibition

>>> obs_value("C=C(C)[C@H]1CC[C@]2(C)[C@@H]([N+](=O)[O-])CC[C@@]23C(=O)O[C@@H]1[C@@H]3O")
"inactive"
>>> obs_value("C/C1=C\\CCC2=CC(O)(C/C(C)=C/CC1)OC2=O (racemic)")
"inactive"
>>> obs_value("C/C1=C\\CC/C(C=O)=C\\[C@@H]2[C@@H](CC1)C2(C)C")
"inactive"
>>> obs_value("C/C1=C\\CCC2=C[C@H](C/C(C)=C/CC1)OC2=O")
"inactive"
>>> obs_value("C/C1=C\\CC/C(C=O)=C\\[C@H]2[C@@H](C[C@H]1O)C2(C)C")
"inactive"
